# Test system: CCRIS mutagenicity, Ames/micronucleus/aberration tests
# Protocol Notes: CCRIS mutagenicity studies
# Test Settings: Test System: AMES SALMONELLA TYPHIMURIUM; Strain/Indicator: YG1029; Metabolic Activation: NONE; Method: PREINCUBATION
Calls of active or inactive are those of the source. How the calls were made is not given here.
Permitted responses: True = active, False = inactive

Here's what some known entries look like.
CCOc1ccc(NO)cc1 : True
ONc1ccc2c(c1)Cc1ccccc1-2 : True
CCOc1ccc([N+](=O)[O-])cc1 : True
Nc1ccc2ncsc2c1 : False

Call for entry "O=[N+]([O-])c1ccc(Nc2ncnc3c2ncn3-c2ccc([N+](=O)[O-])cc2)cc1" :
False

Assay outcome for "Nc1nc(-c2ccc([N+](=O)[O-])cc2)nc2c1ncn2[C@H]1C[C@H](O)[C@@H](CO)O1" : what was it?
True

// provenance: PubChem BioAssay AID1259407
